- TARGET: human IGF1R (insulin-like growth factor 1 receptor) on cells (human, UniProt P08069 31-1367)
- Sequence (P08069 31-1367 limits assumed): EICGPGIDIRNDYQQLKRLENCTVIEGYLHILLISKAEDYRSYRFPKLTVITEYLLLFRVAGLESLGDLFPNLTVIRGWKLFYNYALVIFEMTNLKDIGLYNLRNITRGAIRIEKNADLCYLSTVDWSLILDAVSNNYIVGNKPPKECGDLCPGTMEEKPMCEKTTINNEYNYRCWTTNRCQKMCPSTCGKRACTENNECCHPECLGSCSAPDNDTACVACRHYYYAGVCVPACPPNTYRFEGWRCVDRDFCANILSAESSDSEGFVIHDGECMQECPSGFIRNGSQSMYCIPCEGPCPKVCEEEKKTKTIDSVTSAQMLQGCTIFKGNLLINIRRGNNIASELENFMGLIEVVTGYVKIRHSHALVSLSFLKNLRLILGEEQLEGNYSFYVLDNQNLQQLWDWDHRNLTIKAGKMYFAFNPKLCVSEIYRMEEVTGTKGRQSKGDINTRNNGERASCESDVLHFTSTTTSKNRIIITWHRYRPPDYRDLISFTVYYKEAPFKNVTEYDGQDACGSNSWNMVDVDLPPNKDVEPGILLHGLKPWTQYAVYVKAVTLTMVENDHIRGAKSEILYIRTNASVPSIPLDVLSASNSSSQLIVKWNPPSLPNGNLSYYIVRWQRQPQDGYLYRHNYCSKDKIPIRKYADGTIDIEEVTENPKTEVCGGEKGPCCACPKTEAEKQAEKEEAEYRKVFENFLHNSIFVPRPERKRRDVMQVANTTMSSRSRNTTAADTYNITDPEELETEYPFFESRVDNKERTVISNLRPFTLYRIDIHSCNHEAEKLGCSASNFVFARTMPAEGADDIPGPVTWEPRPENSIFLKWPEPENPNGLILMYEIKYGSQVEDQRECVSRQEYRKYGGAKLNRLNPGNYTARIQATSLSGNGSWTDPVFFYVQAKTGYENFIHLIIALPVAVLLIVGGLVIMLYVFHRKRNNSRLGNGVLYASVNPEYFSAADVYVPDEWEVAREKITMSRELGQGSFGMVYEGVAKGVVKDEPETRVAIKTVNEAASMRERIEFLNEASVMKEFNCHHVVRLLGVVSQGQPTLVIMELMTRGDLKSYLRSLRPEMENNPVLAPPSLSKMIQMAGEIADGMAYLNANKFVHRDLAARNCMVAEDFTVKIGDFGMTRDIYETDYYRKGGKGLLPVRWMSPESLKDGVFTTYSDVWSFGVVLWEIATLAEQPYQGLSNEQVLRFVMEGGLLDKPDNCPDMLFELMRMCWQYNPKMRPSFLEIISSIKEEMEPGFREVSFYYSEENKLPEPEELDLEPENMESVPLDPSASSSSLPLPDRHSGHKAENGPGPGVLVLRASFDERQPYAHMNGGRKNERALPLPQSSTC
- EXPERIMENT NOTES: cell-based or functional assay
REPORTED PROPERTY: IC50 of inhibition of IGF-1-induced OPN secretion (U2OS-TSHR cells) (nM)
Numbers only; they are read as nM.

Answered examples (3):
BINDER	UNIT STRING	REPORTED
anti-IGF1R antibody 10D1 (antibody, human IgG1, V domains shown) VH: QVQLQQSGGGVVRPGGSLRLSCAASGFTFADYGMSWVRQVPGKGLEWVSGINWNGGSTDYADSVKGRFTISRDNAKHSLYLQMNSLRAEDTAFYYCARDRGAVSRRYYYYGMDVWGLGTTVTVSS VL: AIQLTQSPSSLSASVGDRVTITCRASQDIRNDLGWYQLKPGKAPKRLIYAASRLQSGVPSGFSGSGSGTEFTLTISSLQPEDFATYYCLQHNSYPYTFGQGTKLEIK	nM	0.046
anti-IGF1R antibody 12A4 (antibody, V domains shown) VH: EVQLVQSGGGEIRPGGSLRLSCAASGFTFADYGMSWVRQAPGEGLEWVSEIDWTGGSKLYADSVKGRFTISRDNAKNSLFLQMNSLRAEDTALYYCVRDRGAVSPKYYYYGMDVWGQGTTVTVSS VL: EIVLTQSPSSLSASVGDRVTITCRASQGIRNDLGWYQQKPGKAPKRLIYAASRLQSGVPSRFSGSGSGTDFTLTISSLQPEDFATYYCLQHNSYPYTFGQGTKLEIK	nM	0.068
anti-IGF1R antibody 12D1 (antibody, human IgG1, V domains shown) VH: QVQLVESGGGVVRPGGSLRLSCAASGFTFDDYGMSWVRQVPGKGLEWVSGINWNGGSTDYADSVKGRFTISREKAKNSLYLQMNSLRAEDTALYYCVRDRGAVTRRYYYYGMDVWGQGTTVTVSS VL: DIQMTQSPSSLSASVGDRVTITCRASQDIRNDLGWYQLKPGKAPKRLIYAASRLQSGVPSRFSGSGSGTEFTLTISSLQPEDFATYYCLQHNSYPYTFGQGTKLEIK	nM	0.096

Attention now turns to another entry.
So what's the measured IC50 of inhibition of IGF-1-induced OPN secretion (U2OS-TSHR cells) for this one? anti-IGF1R antibody 10G1 (antibody, human IgG1, V domains shown) VH: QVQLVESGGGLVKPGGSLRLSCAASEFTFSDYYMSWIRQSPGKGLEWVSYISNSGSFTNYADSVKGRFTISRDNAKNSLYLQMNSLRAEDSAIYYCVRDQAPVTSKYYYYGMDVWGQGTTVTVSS VL: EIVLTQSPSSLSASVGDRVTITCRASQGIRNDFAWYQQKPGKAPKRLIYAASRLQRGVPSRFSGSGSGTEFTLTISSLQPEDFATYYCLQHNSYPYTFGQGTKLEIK 0.13
